Measured melting point of individual entries

Example cases with answers are listed next.
Cc1cn2cccc(OCc3c(Cl)ccc(S(=O)(=O)N4CCC[C@H]4C(=O)NCCCNC(=O)c4ccc(C#N)cc4)c3Cl)c2n1 = 100 to 102 °C
C=CCN(C(=O)OCc1ccccc1)c1cc(F)c(-c2cccnc2)c(F)c1 = 92 to 93 °C
CCC1(O)CC(OC2CC(N(C)C)C(OC3CC(O)C(O)C(C)O3)C(C)O2)c2c(cc3c(c2O)C(=O)c2c(O)ccc(O)c2C3=O)C1C(=O)OC (centres undefined) = 162 to 163 °C

For reference, reported melting point for CCC(=O)C(CC(=O)c1ccccc1)C(O)=S (centres undefined) stands at 110 to 112 °C

For reference, reported melting point for CC(C)(C)OC(=O)[C@H]1C[C@@H](C(=O)OCc2ccccc2)[C@@H](c2ccccc2)N1 (racemic) stands at 70 °C

For reference, reported melting point for Cc1cc(=O)n(-c2cc(C(=O)O)c(Cl)cc2F)c(=O)n1C stands at 236 to 239 °C

For reference, reported melting point for Clc1ccc2onc(Cn3ccnc3)c2c1 stands at 100 to 102 °C

For reference, reported melting point for CNC(=O)c1cc(NCc2c(C)cccc2C)c2nc(C)n(C)c2c1 stands at 252 to 253 °C

For reference, reported melting point for CCCc1nc2c(N)nc3ccccc3c2n1CC1(C(N)=O)CCC1 stands at 234 to 237 °C

For reference, reported melting point for O=C1OC(CCCCN2CCN(c3ccccc3)CC2)CN1c1ccccc1 (centres undefined) stands at 83 to 85 °C

----------
reported.property: melting point

For reference, reported melting point for N#Cc1ccc(-c2cc(-c3ccc(C#N)cc3[N+](=O)[O-])no2)cc1 stands at 264 to 265 °C

----------
Measured melting point of individual entries

Example cases with answers are listed next.
CCOC(=O)c1cc2ccc(-c3ccc(C)cc3)cc2n1C = 98 to 99 °C
CN(Cc1ccccc1)Cc1c(-c2ccc(N)cc2)sc2c1c(=O)c(C(=O)c1ccccc1)cn2Cc1c(F)cccc1F = 126 to 128 °C
COc1cccc(C(CNC(=O)Cc2c(Cl)cncc2Cl)CC(C)C)c1 (stereo not given) = 98 to 99 °C
COC(=O)c1ccc2[nH]c(S)nc2n1 = 233 to 234 °C

// moving on: another record for melting point
For reference, reported melting point for O=c1ccc(C(F)(F)F)cn1-c1ccc(NCCCN2CCCCC2)cc1Cl stands at 112 to 115 °C

----------
Measured melting point of individual entries

CCn1c(Oc2cccc(NC(N)=O)c2)nnc1[C@@H](C)NS(=O)(=O)c1ccc(Cl)c(Cl)c1 = 137 to 138 °C

For reference, reported melting point for O=C(Nc1ccc2ccc(Oc3ccccc3)nc2n1)c1cccc(Br)c1 stands at 194 °C

For reference, reported melting point for CNC(=O)C(S(=O)(=O)CCCl)S(=O)(=O)CCCl stands at 173 to 175 °C

----------
Measured melting point of individual entries

COc1cc(C(=O)N2Cc3ccc(C(=O)NCc4ccc(Cl)cc4)n3Cc3ccccc32)ccc1-c1ccccc1C = 218 to 219 °C

For reference, reported melting point for CC[Si](CC)(CC)CSc1cc(C(C)(C)C)c(O)c(C(C)(C)C)c1 stands at 58 to 60 °C

For reference, reported melting point for CCOC(=O)C1=C(Cl)/C(=N/OS(C)(=O)=O)CC(c2ccc(Cl)cc2F)N1 (stereo not given) stands at 63 to 64 °C

For reference, reported melting point for COc1nc(C)nc(NC(=O)NS(=O)(=O)c2ccccc2C(=O)O)n1 stands at 157 to 158 °C

For reference, reported melting point for N#Cc1ccc(Oc2ccc3ccc(Oc4ccc(C#N)c(C#N)c4)cc3c2)cc1C#N stands at 201 to 204 °C

For reference, reported melting point for CC(=NO)C(=O)C(C)(C)C stands at 107 to 110 °C

For reference, reported melting point for CNC(=O)[C@@H]1C[C@@H](OCc2ccccc2)CN1S(=O)(=O)c1ccc(Cl)c(CBr)c1Cl stands at 62 to 64 °C

For reference, reported melting point for COc1cc(C=O)nnc1OC stands at 179 to 181 °C

For reference, reported melting point for OCc1cc(Cl)c(F)c(Cl)c1F stands at 55 °C

For reference, reported melting point for CC1(C)CC1(N)C(=O)OCC(CO)OCn1cnc2c(=O)[nH]c(N)nc21 (stereo not given) stands at > 300 °C
